tested-target: DuP 996 binding protein
run-description: Radioreceptor screening assay (displacement of tritiated DuP 996)
cond: inhibition of binding of 10 nM tritiated DuP 996, pH 7.4, 25° C., 60 minutes
reported-endpoint: IC50 (µM)
Give bare numbers, in µM.

Give IC50 for each of the items listed below.
1. O=C1C(C(O)(c2ccccn2)c2ccccn2)c2ccccc2N1c1ccccc1 (centres unmarked)
2. O=C1C(Cc2cccnc2)c2ccccc2N1c1ccccc1 (centres unmarked)
3. c1ccc2c(c1)-c1ccccc1C2(Cc1ccncc1)Cc1ccncc1
4. CN1CCC(CC2(CC3CCN(C)CC3)C(=O)N(c3ccccc3)c3ccccc32)CC1

[980, 6.03, 0.062, 970]

Return IC50 measured with DuP 996 binding protein given this compound: `C=C1c2cccc3cccc(c23)C1(Cc1ccncc1)Cc1ccncc1`
0.12

All values here come from patent US5278045A.
